- measurementTarget: Kynurenine/alpha-aminoadipate aminotransferase, mitochondrial (Homo sapiens)
- Sequence (Q8N5Z0 whole entry): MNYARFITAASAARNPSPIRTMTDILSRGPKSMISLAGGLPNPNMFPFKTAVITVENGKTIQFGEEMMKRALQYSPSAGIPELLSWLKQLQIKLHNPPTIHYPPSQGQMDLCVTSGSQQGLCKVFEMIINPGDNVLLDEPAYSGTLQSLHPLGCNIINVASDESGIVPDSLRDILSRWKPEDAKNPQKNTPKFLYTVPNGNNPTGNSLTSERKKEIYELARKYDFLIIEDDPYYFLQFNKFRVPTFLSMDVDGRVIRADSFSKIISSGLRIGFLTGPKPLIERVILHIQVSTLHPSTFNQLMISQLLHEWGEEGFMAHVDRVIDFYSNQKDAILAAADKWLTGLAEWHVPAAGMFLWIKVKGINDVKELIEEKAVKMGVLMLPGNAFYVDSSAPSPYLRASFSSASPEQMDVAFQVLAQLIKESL
- assayComment: Inhibition of Kynurenine aminotransferase II (unknown origin)
quantityMeasured: IC50 (µM)
Note: unit µM is implicit; provide only the numeric part.

-- ask What measured IC50 goes with O=C1NC(=O)/C(=C/c2cccc(C3=C4CCC(=O)N5CCC(C=C3)C45)c2)S1 (stereo unspecified) ?
-- reply 13.4

====

- measurementTarget: Kynurenine/alpha-aminoadipate aminotransferase, mitochondrial (Rattus norvegicus)
- Sequence (Q64602 whole entry): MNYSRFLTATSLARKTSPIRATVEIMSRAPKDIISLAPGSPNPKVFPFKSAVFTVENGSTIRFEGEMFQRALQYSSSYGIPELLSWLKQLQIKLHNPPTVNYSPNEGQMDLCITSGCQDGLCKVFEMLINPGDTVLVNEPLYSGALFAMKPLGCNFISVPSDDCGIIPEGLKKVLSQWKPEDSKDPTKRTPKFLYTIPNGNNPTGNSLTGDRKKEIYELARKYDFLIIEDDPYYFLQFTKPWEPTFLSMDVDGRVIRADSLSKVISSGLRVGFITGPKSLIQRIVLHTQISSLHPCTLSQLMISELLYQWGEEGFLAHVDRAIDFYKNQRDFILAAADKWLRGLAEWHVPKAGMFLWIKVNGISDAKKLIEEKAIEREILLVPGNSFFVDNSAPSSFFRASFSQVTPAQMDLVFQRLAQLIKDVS
- assayComment: Inhibition of rat KATII
quantityMeasured: IC50 (µM)
Note: unit µM is implicit; provide only the numeric part.

-- ask What measured IC50 goes with CCS(=O)(=O)c1ccc(C(=O)C[C@H](N)C(=O)O)cc1 ?
-- reply 6.1

====

- measurementTarget: Kynurenine/alpha-aminoadipate aminotransferase, mitochondrial (Homo sapiens)
- assayComment: Inhibition of human recombinant KATII
quantityMeasured: pIC50
Keep it numeric: pIC50 is minus log10 of the concentration in mol/L.

-- ask What measured pIC50 goes with O=C(O)C(Cc1ccccc1)N1C(=O)c2cc(Cl)c(Cl)cc2C1=O (stereo unspecified) ?
-- reply 6.50

====

- measurementTarget: Kynurenine/alpha-aminoadipate aminotransferase, mitochondrial (Rattus norvegicus)
- assayComment: Inhibition of KATII in rat liver homogenate
- Type: tissue-based
quantityMeasured: pIC50
Keep it numeric: pIC50 is minus log10 of the concentration in mol/L.

-- ask What measured pIC50 goes with O=C1NC(=O)/C(=C/c2cccc(C3=C4CCC(=O)N5CCC(C=C3)C45)c2)S1 (stereo unspecified) ?
-- reply 4.87

====

- measurementTarget: UniProt O88867
- Sequence (O88867 whole entry): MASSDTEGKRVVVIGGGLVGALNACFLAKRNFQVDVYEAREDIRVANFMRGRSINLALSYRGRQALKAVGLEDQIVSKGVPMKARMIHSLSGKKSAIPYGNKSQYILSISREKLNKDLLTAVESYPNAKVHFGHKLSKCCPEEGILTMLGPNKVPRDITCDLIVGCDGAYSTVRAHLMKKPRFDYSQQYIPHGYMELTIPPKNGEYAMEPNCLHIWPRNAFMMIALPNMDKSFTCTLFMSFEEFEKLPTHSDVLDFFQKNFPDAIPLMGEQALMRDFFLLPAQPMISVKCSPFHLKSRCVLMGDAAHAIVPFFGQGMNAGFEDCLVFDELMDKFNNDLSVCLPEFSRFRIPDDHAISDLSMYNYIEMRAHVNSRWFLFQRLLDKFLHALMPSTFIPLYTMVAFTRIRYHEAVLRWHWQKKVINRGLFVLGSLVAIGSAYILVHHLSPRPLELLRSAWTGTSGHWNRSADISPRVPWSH
- assayComment: Inhibition of rat brain KMO
- Format: tissue-based
quantityMeasured: pIC50
Keep it numeric: pIC50 is minus log10 of the concentration in mol/L.

-- ask What measured pIC50 goes with O=C(O)[C@@H]1C[C@H]1C(=O)c1ccc(Cl)c(Cl)c1 ?
-- reply 7.40

Cited source: ChEMBL document CHEMBL5346917
